target: acetylcholine receptor (Homo sapiens); test: SPR binding affinity (RU) of optimized 5mer/6mer/7mer peptides, Examples 6-7; conditions: SPR, Resonance Units; peptides tested at 10 μM; 6mer-2 Bottom sequence
Sequence (P02708 21-457): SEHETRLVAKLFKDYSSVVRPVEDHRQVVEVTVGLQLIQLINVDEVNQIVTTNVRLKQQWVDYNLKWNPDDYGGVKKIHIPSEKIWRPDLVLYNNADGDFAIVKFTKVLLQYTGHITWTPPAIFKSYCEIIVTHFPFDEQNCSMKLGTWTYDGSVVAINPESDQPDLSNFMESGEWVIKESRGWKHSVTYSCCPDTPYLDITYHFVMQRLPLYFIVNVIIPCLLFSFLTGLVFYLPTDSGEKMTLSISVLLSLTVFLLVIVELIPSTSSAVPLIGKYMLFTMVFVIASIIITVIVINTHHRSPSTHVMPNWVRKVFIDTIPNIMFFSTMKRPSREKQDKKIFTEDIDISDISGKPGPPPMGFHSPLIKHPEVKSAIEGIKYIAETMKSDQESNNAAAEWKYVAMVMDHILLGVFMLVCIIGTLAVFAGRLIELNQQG
Hi! Could you tag entries with Binding affinity below 30 Ru as criterion met, and those at or above as criterion not met? Much appreciated.

Below, 8 substances whose answers are already recorded.
SUBSTANCE	CATEGORY
6mer-2-681 (RDTWRR)	criterion not met
6mer-2-711 (KECGRR)	criterion met
6mer-2-818 (KTPERK)	criterion met
6mer-2-966 (KEDAKR)	criterion not met
6mer-2-615 (KDNGRK)	criterion met
6mer-2-799 (KCSAKK)	criterion met
6mer-2-708 (RAWVKK)	criterion met
6mer-2-915 (KNCWKR)	criterion met

Request: Binding affinity strictly < 30 Ru for this substance? 6mer-2-764 (RNAVKK)
Result: criterion not met

Request: Binding affinity strictly < 30 Ru for this substance? 6mer-2-971 (KEMFRK)
Result: criterion met

Request: Binding affinity strictly < 30 Ru for this substance? 6mer-2-938 (RIEHKR)
Result: criterion not met
